- Tested on: SK-OV-3
- experiment-notes: Growth inhibition of human SKOV3 cells by MTT assay
- Assay type: functional
recorded-endpoint: GI50 (µM)
Use µM as the unit, but write only the number.

Example cases with answers are listed next.
compound	target-or-test-system	recorded-endpoint	result-value
C[C@H]1C(=O)CC[C@@H]2[C@]1(C)CC[C@H]1[C@@]2(C)CC[C@@]2(C)[C@@H]3CC(C)(C)CC[C@]3(C)CC[C@]12C [FRIEDELINE]	SK-OV-3	GI50	12.7
CC[C@H](CC[C@@H](C)[C@H]1CC[C@H]2[C@@H]3CC=C4C[C@@H](O[C@@H]5O[C@H](CO)[C@@H](O)[C@H](O)[C@H]5O)CC[C@]4(C)[C@H]3CC[C@]12C)C(C)C [SITOGLUSIDE]	SK-OV-3	GI50	29.8
CC(=O)O[C@H]1CC[C@]2(C)[C@H]3CC=C4[C@@H]5CC(C)(C)CC[C@]5(C)CC[C@@]4(C)[C@]3(C)CC[C@H]2C1(C)C [beta-AMYRIN ACETATE]	SK-OV-3	GI50	14.6
CC(=O)O[C@H]1CC[C@@]2(C)[C@@]3(OC[C@@H](OO3)[C@]3(C)[C@@]2(C)CC[C@@]2(C)[C@@H]4CC(C)(C)CC[C@]4(C)CC[C@]32C)C1(C)C [ACERANOL ACETATE]	SK-OV-3	GI50	12.8
O=C1c2c(O)ccc(O)c2C(=O)c2c(NCCNCCO)ccc(NCCNCCO)c21 [MITOXANTRONE]	SK-OV-3	GI50	11
CC1(C)CC[C@]2(C)CC[C@]3(C)[C@H]4CC=C5[C@@H](CC[C@H](O)C5(C)C)[C@]4(C)CC[C@@]3(C)[C@@H]2C1 [GLUTINOL]	SK-OV-3	GI50	12.6

Note: attention shifts to another entry.
Prompt: Answer with reported GI50 of CC(=O)O[C@H]1CC[C@@H]2C(=CC[C@H]3[C@@]2(C)CC[C@@]2(C)[C@@H]4CC(C)(C)CC[C@]4(C)CC[C@]32C)C1(C)C [GLUTINOL ACETATE]
Completion: 12.1
